Settings: rat, in vivo, iv, 2 mg/kg
Bridge positions count the residues as written; N and C are the ends. Square brackets hold non-standard residues; d marks the D form. Peptide text beside a SMILES is read from it. * marks the point of attachment. Piperazin2one(3S-Bu,6R-CO) = CCCC[C@@H]1NC[C@H](C(=O)*)NC1=O; X1 = N=C(N)NCCC[C@H]1C(=O)N[C@@H](C(N)=O)CN1*; Nle = CCCC[C@H](N)C(=O)O; Orn = NCCC[C@H](N)C(=O)O
observed-property: Vd (L/kg)
The reply should contain only the number, in L/kg.

Example compounds with recorded Vd:
CCCC[C@@H]1NC[C@H](C(=O)N[C@H]2CSSC[C@@H](C(=O)N[C@@H](Cc3ccc(O)cc3)C(=O)N3C[C@H](C(N)=O)NC(=O)[C@@H]3CCCNC(=N)N)NC(=O)[C@H](CO)NC(=O)[C@H]([C@@H](C)CC)NC(=O)[C@H](C)NC(=O)[C@H](CC(=O)O)NC(=O)[C@H](CCCC)NC(=O)[C@H](C)NC(=O)CNC(=O)CNC(=O)[C@H](Cc3ccccc3)NC(=O)[C@H](Cc3c[nH]cn3)NC2=O)NC1=O [1-100] ({Piperazin2one(3S-Bu,6R-CO)}-CHFGGA[Nle]DAISCY-X1; disulfide 1-12) | 0.8
CCCC[C@@H]1NC[C@H](C(=O)N[C@H]2CSSC[C@@H](C(=O)N[C@@H](Cc3ccc(O)cc3)C(=O)N3C[C@H](C(N)=O)NC(=O)[C@@H]3CCCNC(=N)N)NC(=O)[C@H](CO)NC(=O)[C@H]([C@@H](C)CC)NC(=O)[C@H](CCCNC(=N)N)NC(=O)[C@H](CC(=O)O)NC(=O)[C@H](CCCC)NC(=O)[C@H](CCCNC(=N)N)NC(=O)CNC(=O)CNC(=O)[C@H](Cc3ccccc3)NC(=O)[C@H](Cc3c[nH]cn3)NC2=O)NC1=O [1-18] ({Piperazin2one(3S-Bu,6R-CO)}-CHFGGR[Nle]DRISCY-X1; disulfide 1-12) | 0.7
CCCC[C@@H]1NC[C@H](C(=O)N[C@H]2CSSC[C@@H](C(=O)N[C@@H](Cc3ccc(O)cc3)C(=O)N3C[C@H](C(N)=O)NC(=O)[C@@H]3CCCNC(=N)N)NC(=O)[C@H](CO)NC(=O)[C@H]([C@@H](C)CC)NC(=O)[C@H](CCCNC(=N)N)NC(=O)[C@H](CC(=O)O)NC(=O)[C@H](CCCC)NC(=O)[C@H](CCCN)NC(=O)CNC(=O)CNC(=O)[C@H](Cc3ccccc3)NC(=O)[C@H](Cc3c[nH]cn3)NC2=O)NC1=O [1-54] ({Piperazin2one(3S-Bu,6R-CO)}-CHFGG[Orn][Nle]DRISCY-X1; disulfide 1-12) | 1

--- query ---
## Task Recorded Vd of CCCC[C@@H]1NC[C@H](C(=O)N[C@H]2CSSC[C@@H](C(=O)N[C@@H](Cc3ccc(O)cc3)C(=O)N3C[C@H](C(N)=O)NC(=O)[C@@H]3CCCNC(=N)N)NC(=O)[C@H](CO)NC(=O)[C@H]([C@@H](C)CC)NC(=O)[C@H](CCCNC(=N)N)NC(=O)[C@H](CC(=O)O)NC(=O)[C@H](CCCC)NC(=O)[C@H](CCCNC(=N)N)NC(=O)CNC(=O)[C@@H](C)NC(=O)[C@H](Cc3ccccc3)NC(=O)[C@H](Cc3c[nH]cn3)NC2=O)NC1=O [1-68] , please.
## Result 0.5
